Data credit: patent US9505716B2

target: recombinant human serotonin transporter expressed in HEK-293 cells (Homo sapiens, UniProt P31645); construct: expressed in transfected cells; host or cells: HEK-293; assay: Serotonin functional uptake assay for human reuptake transporter; format: cell-based; conditions: functional uptake of serotonin; read-out: hSERT (IC50 nM)
Sequence (P31645 whole entry): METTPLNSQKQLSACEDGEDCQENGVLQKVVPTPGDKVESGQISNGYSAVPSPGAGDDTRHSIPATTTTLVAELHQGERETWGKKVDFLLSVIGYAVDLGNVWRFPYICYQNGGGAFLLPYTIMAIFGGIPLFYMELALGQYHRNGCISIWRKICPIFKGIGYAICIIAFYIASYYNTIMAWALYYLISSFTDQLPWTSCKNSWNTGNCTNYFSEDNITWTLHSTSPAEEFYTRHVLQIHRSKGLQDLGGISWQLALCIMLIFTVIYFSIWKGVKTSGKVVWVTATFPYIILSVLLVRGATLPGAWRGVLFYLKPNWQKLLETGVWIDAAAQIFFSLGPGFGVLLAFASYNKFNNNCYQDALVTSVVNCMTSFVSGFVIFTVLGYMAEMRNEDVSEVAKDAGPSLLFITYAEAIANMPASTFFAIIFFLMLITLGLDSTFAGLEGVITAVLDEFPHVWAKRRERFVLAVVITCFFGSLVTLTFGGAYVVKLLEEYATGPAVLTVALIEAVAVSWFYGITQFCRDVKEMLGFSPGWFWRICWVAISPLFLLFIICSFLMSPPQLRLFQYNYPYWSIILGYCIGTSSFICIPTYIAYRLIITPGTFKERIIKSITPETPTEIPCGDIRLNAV
Let's look at some compounds and their measured IC50.

> print(dat)
                                   compound  reported.result
1  CN1CCC(C2(c3ccc(Cl)c(Cl)c3)CCCCC2)C1 (centres unmarked) [Compound 4]         > 500 nM
2  O[C@H]1CC[C@](c2ccc(Cl)c(Cl)c2)([C@H]2CCNC2)CC1          < 10 nM
3  C[C@]1(O)CC[C@](c2ccc(Cl)c(Cl)c2)([C@H]2CCNC2)CC1          < 10 nM
4  c1ccc2cc(C3(C4CCNC4)CCC3)ccc2c1 (single isomer, unassigned) [Compound 13]         < 100 nM

Now, please, on to the next compound.
Noted for c1ccc2cc(C3(C4CCNC4)CCC3)ccc2c1 (single isomer, unassigned) [Compound 14] : its IC50 reads < 10 nM

* * *

target: recombinant human norepinephrine transporter expressed in either HEK293 or MDCK cells (Homo sapiens); construct: expressed in transfected cells; host or cells: HEK293 or MDCK; experiment: Norepinephrine functional uptake assay for human reuptake transporter; format: cell-based; details: functional uptake of norepinephrine
Sequence (P23975 whole entry): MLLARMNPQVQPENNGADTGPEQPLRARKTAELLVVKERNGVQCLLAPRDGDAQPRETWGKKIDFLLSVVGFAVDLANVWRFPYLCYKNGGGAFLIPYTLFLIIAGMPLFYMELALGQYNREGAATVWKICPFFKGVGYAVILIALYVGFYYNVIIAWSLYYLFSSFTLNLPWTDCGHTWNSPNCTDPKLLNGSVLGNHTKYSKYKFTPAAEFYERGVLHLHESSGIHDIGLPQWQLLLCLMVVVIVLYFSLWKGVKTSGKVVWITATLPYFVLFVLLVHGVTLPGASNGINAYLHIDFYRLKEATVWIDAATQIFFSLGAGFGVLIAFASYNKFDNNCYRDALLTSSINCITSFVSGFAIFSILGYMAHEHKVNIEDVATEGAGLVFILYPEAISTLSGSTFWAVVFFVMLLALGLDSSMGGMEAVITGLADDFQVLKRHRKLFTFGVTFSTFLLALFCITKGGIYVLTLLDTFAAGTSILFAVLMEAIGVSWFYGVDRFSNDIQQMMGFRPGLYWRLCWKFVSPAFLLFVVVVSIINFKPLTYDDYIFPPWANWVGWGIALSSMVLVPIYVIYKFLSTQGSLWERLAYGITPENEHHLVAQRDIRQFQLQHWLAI
RECORDED ENDPOINT: hNET (IC50 nM)

> print(dat)
                                   compound     reported.result
1  Clc1ccc(C2(C3CCNC3)CCCC2)cc1Cl (single isomer, unassigned) [Compound 5]  ++ (IC50 ≦ 100 nM)
2  C[C@]1(O)CC[C@@](c2ccc(Cl)c(Cl)c2)([C@@H]2CCNC2)CC1  +++ (IC50 < 10 nM)
3  C[C@]1(O)CC[C@](c2ccc(Cl)c(Cl)c2)([C@@H]2CCNC2)CC1  ++ (IC50 ≦ 100 nM)
4  O[C@H]1CC[C@@](c2ccc(Cl)c(Cl)c2)([C@H]2CCNC2)CC1  +++ (IC50 < 10 nM)

* * *

molecular target: recombinant human dopamine transporter expressed in either CHO-K1 or HEK293 cells (Homo sapiens); construct: expressed in transfected cells; host or cells: CHO-K1 or HEK293; assay: Dopamine functional uptake assay for human reuptake transporter; type: cell-based; conditions: functional uptake of dopamine
Sequence (Q01959 whole entry): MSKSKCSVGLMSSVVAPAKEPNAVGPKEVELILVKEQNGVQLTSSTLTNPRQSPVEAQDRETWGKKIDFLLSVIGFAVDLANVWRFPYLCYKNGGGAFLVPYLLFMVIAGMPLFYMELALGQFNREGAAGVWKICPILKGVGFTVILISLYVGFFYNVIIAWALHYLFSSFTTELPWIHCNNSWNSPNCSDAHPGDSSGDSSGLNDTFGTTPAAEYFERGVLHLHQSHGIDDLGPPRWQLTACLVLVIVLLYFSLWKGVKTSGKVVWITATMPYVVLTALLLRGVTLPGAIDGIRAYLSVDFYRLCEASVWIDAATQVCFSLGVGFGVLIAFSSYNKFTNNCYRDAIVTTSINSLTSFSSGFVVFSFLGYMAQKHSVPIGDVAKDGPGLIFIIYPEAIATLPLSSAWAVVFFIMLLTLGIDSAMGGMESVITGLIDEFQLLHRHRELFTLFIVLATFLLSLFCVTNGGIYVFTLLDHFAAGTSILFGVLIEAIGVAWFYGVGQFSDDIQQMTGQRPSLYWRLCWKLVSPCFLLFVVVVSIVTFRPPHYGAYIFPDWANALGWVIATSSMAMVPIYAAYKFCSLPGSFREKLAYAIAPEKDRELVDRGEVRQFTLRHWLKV
RECORDED ENDPOINT: hDAT (IC50 nM)

Guide cases for hDAT (IC50 nM), answers given:
> print(dat)
                                   molecule     reported.result
1  C[C@]1(O)CC[C@](c2ccc(Cl)c(Cl)c2)([C@H]2CCNC2)CC1  +++ (IC50 < 10 nM)
2  CN1CCC(C2(c3ccc(Cl)c(Cl)c3)CCCCC2)C1 (stereo not shown) [Compound 3]  ++ (IC50 ≦ 100 nM)
3  c1ccc2cc(C3(C4CCNC4)CCCC3)ccc2c1 (single isomer, unassigned) [Compound 12]  ++ (IC50 ≦ 100 nM)
4  c1ccc2cc(C3(C4CCNC4)CCC3)ccc2c1 (single isomer, unassigned) [Compound 14]  ++ (IC50 ≦ 100 nM)
5  CO[C@]1(C)CC[C@@](c2ccc(Cl)c(Cl)c2)([C@H]2CCNC2)CC1  ++ (IC50 ≦ 100 nM)

Documented hDAT (IC50 nM) of O[C@H]1CC[C@@](c2ccc(Cl)c(Cl)c2)([C@H]2CCNC2)CC1 : ++ (IC50 ≦ 100 nM)

// recorded hDAT (IC50 nM) for CO[C@]1(C)CC[C@@](c2ccc(Cl)c(Cl)c2)([C@@H]2CCNC2)CC1 : ++ (IC50 ≦ 100 nM)
